Test system: human SMAD7 mRNA
Assay: Dose-dependent inhibition of human SMAD7 mRNA expression in Hep3B cells (Example 3, Study 1 and 2)
Type: cell-based
Conditions: electroporation, Study 1 (312.5-20000 nM)
Strand notation (5' to 3'): a small letter for the sugar, then the base; units joined by * are phosphorothioate-linked, units joined directly phosphodiester-linked; [ ] holds rarer units or linkages, { } end groups; capitals alone tell only the bases. e = 2'-O-(2-methoxyethyl) (MOE); [5mC] = 5-methylcytosine; d = 2'-deoxy (DNA)
Please provide measured IC50 for the entries that follow.
Your answer should be a plain number; it is taken to be in µM.

For record 771715 (antisense eA*eG*eT*e[5mC]*eT*d[5mC]*d[5mC]*dG*dA*dG*dT*dT*dA*dT*d[5mC]*e[5mC]*e[5mC]*e[5mC]*eA*eT) [compound 771715] the listed IC50 is 17

For record 771902 (antisense eG*eG*eG*eT*eT*d[5mC]*dT*d[5mC]*d[5mC]*dA*dG*d[5mC]*d[5mC]*dG*d[5mC]*eT*e[5mC]*eA*eG*eA) [compound 771902] the listed IC50 is 13

For record 771583 (antisense eT*eG*e[5mC]*eT*e[5mC]*d[5mC]*dT*dG*dG*d[5mC]*dA*dG*d[5mC]*dT*dG*e[5mC]*eT*eG*eG*eG) [compound 771583] the listed IC50 is 10

For record 771711 (antisense e[5mC]*eG*e[5mC]*eA*e[5mC]*dT*dT*d[5mC]*dA*d[5mC]*dA*dG*dT*dT*d[5mC]*eA*e[5mC]*eA*eG*eG) [compound 771711] the listed IC50 is 18

For record 771663 (antisense eT*eT*e[5mC]*e[5mC]*eA*dA*dT*dG*dA*dG*dA*dA*dT*dG*d[5mC]*eT*eT*e[5mC]*eT*e[5mC]) [compound 771663] the listed IC50 is 11

For record 771479 (antisense eG*eG*eG*eA*eA*d[5mC]*dA*d[5mC]*d[5mC]*dT*dT*dG*dT*dG*dT*eA*e[5mC]*e[5mC]*eA*eA) [compound 771479] the listed IC50 is 7

For record 771732 (antisense eG*eT*e[5mC]*eA*eT*dG*dT*dG*dA*dA*d[5mC]*dA*d[5mC]*dT*d[5mC]*eT*eT*eT*e[5mC]*eA) [compound 771732] the listed IC50 is 15

For record 771576 (antisense eG*eG*eG*e[5mC]*eA*dG*dG*dA*dG*dA*dG*dA*d[5mC]*dA*d[5mC]*e[5mC]*eG*e[5mC]*eT*eT) [compound 771576] the listed IC50 is 4

For record 771793 (antisense eA*eA*eG*eT*e[5mC]*d[5mC]*d[5mC]*dT*dA*dA*d[5mC]*dG*dA*d[5mC]*d[5mC]*eA*eG*eG*e[5mC]*e[5mC]) [compound 771793] the listed IC50 is 12

* * *

Test system: human SMAD7 mRNA
Assay: Dose-dependent inhibition of human SMAD7 mRNA expression in Hep3B cells (Example 3, Study 1 and 2)
Type: cell-based
Conditions: 740 nM, electroporation, approximately 16 hours, Study 2, relative to untreated control cells
Strand notation (5' to 3'): a small letter for the sugar, then the base; units joined by * are phosphorothioate-linked, units joined directly phosphodiester-linked; [ ] holds rarer units or linkages, { } end groups; capitals alone tell only the bases. k = constrained ethyl (cEt); [5mC] = 5-methylcytosine; d = 2'-deoxy (DNA)
Entry flag: yes (1) if % inhibition of SMAD7 mRNA expression reaches 7%; no (0) if it does not.

Problem: Could you verify whether the entry 801040 (antisense kG*kT*k[5mC]*dA*dT*dG*dA*dA*dA*dG*dA*dT*dT*k[5mC]*kT*kT) [compound 801040] shows % inhibition of SMAD7 mRNA expression of no less than 7%?
Solution: yes (1)

Problem: Could you verify whether the entry 799556 (kA*k[5mC]*kA*dA*d[5mC]*dA*dA*dT*dG*d[5mC]*dT*d[5mC]*dT*kG*kG*k[5mC]; antisense) [compound 799556] shows % inhibition of SMAD7 mRNA expression of no less than 7%?
Solution: no (0)

Problem: Could you verify whether the entry 800025 (kA*kG*kT*dA*d[5mC]*dA*dA*dG*dG*dA*d[5mC]*dT*dA*kA*kG*kG; antisense) [compound 800025] shows % inhibition of SMAD7 mRNA expression of no less than 7%?
Solution: no (0)

Problem: Could you verify whether the entry 830051 (kT*kA*kG*dT*dT*dT*d[5mC]*d[5mC]*dG*dA*dT*dT*dG*kG*k[5mC]*kA; antisense) [compound 830051] shows % inhibition of SMAD7 mRNA expression of no less than 7%?
Solution: no (0)

Problem: Could you verify whether the entry 799980 (k[5mC]*k[5mC]*kA*dA*d[5mC]*dG*dG*dT*dT*dG*d[5mC]*d[5mC]*dT*k[5mC]*kA*kT; antisense) [compound 799980] shows % inhibition of SMAD7 mRNA expression of no less than 7%?
Solution: yes (1)

Problem: Could you verify whether the entry 799382 (antisense kA*k[5mC]*kT*dT*dT*dT*dA*dG*d[5mC]*dA*dA*dA*d[5mC]*kA*kG*kA) [compound 799382] shows % inhibition of SMAD7 mRNA expression of no less than 7%?
Solution: no (0)

Problem: Could you verify whether the entry 799755 (antisense kG*kA*kA*dA*dG*dT*dT*dA*d[5mC]*dA*dG*dA*dA*k[5mC]*kT*k[5mC]) [compound 799755] shows % inhibition of SMAD7 mRNA expression of no less than 7%?
Solution: yes (1)

Problem: Could you verify whether the entry 772732 (kG*kA*kT*dA*dT*dT*dT*dA*dG*d[5mC]*dT*dG*dT*k[5mC]*kA*kG; antisense) [compound 772732] shows % inhibition of SMAD7 mRNA expression of no less than 7%?
Solution: yes (1)

Problem: Could you verify whether the entry 799089 (antisense kA*kG*k[5mC]*dA*dA*dT*dA*d[5mC]*dT*dG*dT*dG*dA*kG*kG*kG) [compound 799089] shows % inhibition of SMAD7 mRNA expression of no less than 7%?
Solution: yes (1)

Problem: Could you verify whether the entry 799674 (antisense kG*kA*kT*d[5mC]*dA*d[5mC]*dA*dA*dT*dT*d[5mC]*d[5mC]*dA*kA*kG*k[5mC]) [compound 799674] shows % inhibition of SMAD7 mRNA expression of no less than 7%?
Solution: yes (1)

Problem: Could you verify whether the entry 798824 (kG*kA*k[5mC]*dA*d[5mC]*dA*dG*dT*dA*dG*dA*dG*d[5mC]*k[5mC]*kT*k[5mC]; antisense) [compound 798824] shows % inhibition of SMAD7 mRNA expression of no less than 7%?
Solution: no (0)

Problem: Could you verify whether the entry 830144 (antisense kG*kG*kG*dT*dG*dT*dG*d[5mC]*dA*d[5mC]*d[5mC]*dA*dG*kG*kT*kG) [compound 830144] shows % inhibition of SMAD7 mRNA expression of no less than 7%?
Solution: yes (1)

* * *

Assay: Organ weights after subcutaneous administration in CD-1 mice (Example 6)
Format: in vivo
Conditions: end of study, 50 mg/kg subcutaneously twice a week for 7 weeks
Strand notation (5' to 3'): a small letter for the sugar, then the base; units joined by * are phosphorothioate-linked, units joined directly phosphodiester-linked; [ ] holds rarer units or linkages, { } end groups; capitals alone tell only the bases. k = constrained ethyl (cEt); [5mC] = 5-methylcytosine; d = 2'-deoxy (DNA)
endpoint.label: Organ weights, Spleen (g)
Your answer should be a plain number; it is taken to be in g.

For record 829994 (GGAGGCAGGGCCGCGA; 3-10-3 cEt gapmer, further chemistry not given here) [compound 829994] the listed Organ weights, Spleen is 0.3

For record 790615 (CCAATGAGAATGCTTC; 3-10-3 cEt gapmer, further chemistry not given here) [compound 790615] the listed Organ weights, Spleen is 0.2

For record 830025 (antisense TTTGTAAATCGAAAGC; 3-10-3 cEt gapmer, further chemistry not given here) [compound 830025] the listed Organ weights, Spleen is 0.2

For record 799144 (antisense kT*kT*kG*dG*dG*dT*dT*dA*dT*dG*dA*d[5mC]*dG*kG*kA*k[5mC]) [compound 799144] the listed Organ weights, Spleen is 0.1

* * *

Please provide measured % inhibition of SMAD7 mRNA expression for the entries that follow.
Tested on: human SMAD7 mRNA
Assay: Antisense inhibition of human SMAD7 mRNA expression in Hep3B cells by 5-10-5 MOE gapmers, single concentration, electroporation, RT-PCR (Example 1, Study 1 and 2)
Format: cell-based
Settings: electroporation, 15,000 nM, approximately 24 hours, relative to untreated control cells, gapmers targeting SEQ ID NO: 1 and 2
Strand notation (5' to 3'): a small letter for the sugar, then the base; units joined by * are phosphorothioate-linked, units joined directly phosphodiester-linked; [ ] holds rarer units or linkages, { } end groups; capitals alone tell only the bases. e = 2'-O-(2-methoxyethyl) (MOE); [5mC] = 5-methylcytosine; d = 2'-deoxy (DNA)
Your answer should be a plain number; it is taken to be in %.

Tested on human SMAD7 mRNA: 771509 (antisense eG*eG*e[5mC]*e[5mC]*eT*dG*d[5mC]*dT*d[5mC]*dA*dG*d[5mC]*dT*d[5mC]*dA*e[5mC]*eG*e[5mC]*eT*e[5mC]) [compound 771509] . Observed % inhibition of SMAD7 mRNA expression: 65

Tested on human SMAD7 mRNA: 483663 (antisense e[5mC]*eA*eG*e[5mC]*e[5mC]*dT*d[5mC]*dT*dT*dG*dA*d[5mC]*dT*dT*d[5mC]*e[5mC]*eG*eA*eG*eG) [compound 483663] . Observed % inhibition of SMAD7 mRNA expression: 49

Tested on human SMAD7 mRNA: 771941 (antisense eT*e[5mC]*eA*eA*eT*dG*dA*dT*dG*dA*dT*dG*dG*dG*dT*eT*eG*e[5mC]*eA*e[5mC]) [compound 771941] . Observed % inhibition of SMAD7 mRNA expression: 40

Tested on human SMAD7 mRNA: 771725 (antisense e[5mC]*eT*eT*eG*eA*dG*dG*dG*dA*dG*d[5mC]*dT*dG*dG*dT*eA*eG*eA*eG*eT) [compound 771725] . Observed % inhibition of SMAD7 mRNA expression: 8

Tested on human SMAD7 mRNA: 771653 (antisense eT*eG*e[5mC]*eT*e[5mC]*dA*dT*dT*dG*dA*dG*d[5mC]*dT*dA*dA*eG*eA*eA*e[5mC]*eA) [compound 771653] . Observed % inhibition of SMAD7 mRNA expression: 33

Tested on human SMAD7 mRNA: 771813 (antisense eT*e[5mC]*eT*eT*eG*dT*d[5mC]*dT*dG*dG*d[5mC]*d[5mC]*dG*dG*d[5mC]*eA*eG*eA*eG*e[5mC]) [compound 771813] . Observed % inhibition of SMAD7 mRNA expression: 38

Tested on human SMAD7 mRNA: 771893 (antisense eG*eT*e[5mC]*eA*eT*d[5mC]*d[5mC]*dG*dT*d[5mC]*d[5mC]*dA*d[5mC]*dT*dG*eT*e[5mC]*eT*eG*e[5mC]) [compound 771893] . Observed % inhibition of SMAD7 mRNA expression: 35

Tested on human SMAD7 mRNA: 771597 (antisense eG*eA*eA*eT*eA*dA*dG*dA*d[5mC]*dA*dA*dG*dG*dA*dT*eG*eA*eA*eA*eA) [compound 771597] . Observed % inhibition of SMAD7 mRNA expression: 0

Tested on human SMAD7 mRNA: 771773 (antisense eT*e[5mC]*eT*eT*eT*dT*d[5mC]*dG*d[5mC]*dA*dT*d[5mC]*d[5mC]*dT*d[5mC]*eA*eG*eG*eA*eA) [compound 771773] . Observed % inhibition of SMAD7 mRNA expression: 57

Tested on human SMAD7 mRNA: 771917 (antisense e[5mC]*e[5mC]*eA*eG*eA*d[5mC]*d[5mC]*d[5mC]*d[5mC]*dT*dT*d[5mC]*dT*dT*dA*eA*eA*eT*eT*eT) [compound 771917] . Observed % inhibition of SMAD7 mRNA expression: 22

Tested on human SMAD7 mRNA: 771629 (antisense eA*eG*e[5mC]*eA*eT*dG*dT*d[5mC]*d[5mC]*d[5mC]*dT*d[5mC]*d[5mC]*d[5mC]*dA*eG*eG*eG*eA*e[5mC]) [compound 771629] . Observed % inhibition of SMAD7 mRNA expression: 25

Origin of values: patent US10517889B2
